molecular target: anti-A031 antibody (C3 PET); test: peptide competition assay in 6% BSA
Where no end group is shown, it is not given here.
Assay metric: IC50 (nM)
Just the number in nM, nothing appended.

Problem: # query: IC50 of entry CHYLDETEQWEK-NH2 [A031 peptide (C3), …-NH2]
Result: 5
